- System: SF-295 CNS
- method: NCI tumour cell line growth inhibition, 48 h
metricName: TGI

* COc1ccc2[nH]c3cc4c(=O)c5cc(OC)ccc5[nH]c4cc3c(=O)c2c1 | > 100 µM
* CC1=C(C(=O)NNC(=O)Cc2ccccc2)CC(C(=O)NNC(=O)Cc2ccccc2)=C(C)N1 | > 100 µM
* COC(=O)C(C(=O)C(=O)Nc1ccc(C)cc1)c1nc2ccc([N+](=O)[O-])cc2[nH]c1=O (centres undefined) | > 100 µM
* CC(=N/NC(=S)N1CCCCCC1)/C(C)=N\NC(=S)N1CCCCCC1 | 12.5 µM
* CCOC(=O)NN(C(=O)OCC)c1ccc(N=Nc2ccc(OC)cc2)n1C | > 100 µM
* CC(C)C[C@H](CC(=O)O)C(=O)N[C@@H](Cc1c[nH]c2ccccc12)C(=O)N[C@@H](C)c1ccccc1 | > 25 µM
* O=C1OC(CC(=O)c2ccc(F)cc2)C(Cl)=C1Cl (centres undefined) | > 100 µM
* N#C/C(=C\c1ccc(O)c(O)c1)c1c(C#N)c(N)nn1-c1ccccc1 | 47.7 µM
* COc1ccc(C(c2ccccc2C(=O)O)c2ccc(OC)c3ccccc23)c2ccccc12 | 25.6 µM

Ref: PubChem BioAssay (NCI)
